Target: HLA-A1101 (Homo sapiens, UniProt P04439, A114D/D185E/E176A/F33Y/L180Q/S129P/T187R)
Assay: Competitive peptide binding assay, HLA-A1101 transfected HMy2.CIR cells
Settings: 5 μM unlabeled peptide, reference peptide YVNVNK(FITC)GLK 300 nM, 24 h, 4 °C
Recorded 5 μM inhibition (%), one value per entry.

>  <SEQUENCE>
ASVYAWNRK [Epitope D72, S protein 348-356]

>  <5 μM inhibition (%)>
58.05%

$$$$
>  <SEQUENCE>
GVYYHKNNK [Epitope D50, S protein 142-150]

>  <5 μM inhibition (%)>
32.38%

$$$$
>  <SEQUENCE>
CTLKSFTVEK [Epitope D40, S protein 301-310]

>  <5 μM inhibition (%)>
56.70%

$$$$
>  <SEQUENCE>
AVAKHDFFK [Epitope R35, RdRp protein 95-103]

>  <5 μM inhibition (%)>
22.50%

$$$$
>  <SEQUENCE>
LVIGAVILR [Epitope B23, M protein 138-146]

>  <5 μM inhibition (%)>
32.30%

$$$$
>  <SEQUENCE>
LSYFIASFR [Epitope B20, M protein 93-101]

>  <5 μM inhibition (%)>
61.88%

$$$$
>  <SEQUENCE>
MTNRQFHQK [Epitope R34, RdRp protein 566-574]

>  <5 μM inhibition (%)>
10.00%

$$$$
>  <SEQUENCE>
YYVGYLQPR [Epitope D80, S protein 265-273]

>  <5 μM inhibition (%)>
4.22%

$$$$
>  <SEQUENCE>
NSASFSTFK [Epitope D38, S protein 370-378]

>  <5 μM inhibition (%)>
80.70%

$$$$
>  <SEQUENCE>
RVKNLNSSR [Epitope A18, E protein 61-69]

>  <5 μM inhibition (%)>
0%

$$$$
>  <SEQUENCE>
CSLSHRFYR [Epitope R43, RdRp protein 646-654]

>  <5 μM inhibition (%)>
79.50%

$$$$

----------
Molecular target: HLA-A3303 (Homo sapiens, UniProt P04439, A270S/D185E/E176V/E277Q/E87N/F33T/G231S/H175R/I121M/I218V/I322F/K168Q/L300P/L318F/M331R/P217A/Q86R/Q94H/R138Q/T323A/T345S/T97I/V358M)
Experiment: Competitive peptide binding assay, HLA-A3303 transfected HMy2.CIR cells
Details: 15 μM unlabeled peptide, reference peptide YVNVNK(FITC)GLK 300 nM, 24 h, 4 °C
Assign Yes whenever 15 μM inhibition (%) does not fall below 40%; assign No whenever it does.

>  <SEQUENCE>
NTPKDHIGTR [Epitope C47, N protein 140-149]

>  <LABEL_VALUE>
Yes

$$$$
>  <SEQUENCE>
IGYYRRATR [Epitope C46, N protein 84-92]

>  <LABEL_VALUE>
Yes

$$$$
>  <SEQUENCE>
RVKNLNSSR [Epitope A18, E protein 61-69]

>  <LABEL_VALUE>
No

$$$$
>  <SEQUENCE>
NVTQAFGRR [Epitope C45, N protein 269-277]

>  <LABEL_VALUE>
No

$$$$
>  <SEQUENCE>
LVIGAVILR [Epitope B23, M protein 138-146]

>  <LABEL_VALUE>
No

$$$$
>  <SEQUENCE>
VYYPDKVFR [Epitope D77, S protein 36-44]

>  <LABEL_VALUE>
Yes

$$$$
>  <SEQUENCE>
NIVNVSLVK [Epitope A12, E protein 45-53]

>  <LABEL_VALUE>
No

$$$$
>  <SEQUENCE>
YYVGYLQPR [Epitope D80, S protein 265-273]

>  <LABEL_VALUE>
Yes

$$$$
>  <SEQUENCE>
NVYADSFVIR [Epitope D79, S protein 394-403]

>  <LABEL_VALUE>
Yes

$$$$
>  <SEQUENCE>
QTNSPRRAR [Epitope D78, S protein 677-685]

>  <LABEL_VALUE>
No

$$$$
>  <SEQUENCE>
GTHWFVTQR [Epitope D48, S protein 1099-1107]

>  <LABEL_VALUE>
Yes

$$$$
>  <SEQUENCE>
CSLSHRFYR [Epitope R43, RdRp protein 646-654]

>  <LABEL_VALUE>
Yes

$$$$
>  <SEQUENCE>
YSRYRIGNYK [Epitope B21, M protein 196-205]

>  <LABEL_VALUE>
Yes

$$$$
>  <SEQUENCE>
LSYFIASFR [Epitope B20, M protein 93-101]

>  <LABEL_VALUE>
No

$$$$
>  <SEQUENCE>
NGVGYQPYR [Epitope D82, S protein 501-509]

>  <LABEL_VALUE>
Yes

$$$$
>  <SEQUENCE>
VVSTGYHFR [Epitope R38, RdRp protein 341-349]

>  <LABEL_VALUE>
Yes

$$$$
>  <SEQUENCE>
SFRLFARTR [Epitope B34, M protein 99-107]

>  <LABEL_VALUE>
Yes

$$$$
>  <SEQUENCE>
MTNRQFHQK [Epitope R34, RdRp protein 566-574]

>  <LABEL_VALUE>
Yes

$$$$
>  <SEQUENCE>
SVYAWNRKR [Epitope D76, S protein 349-357]

>  <LABEL_VALUE>
Yes

$$$$
>  <SEQUENCE>
NYNYLYRLF [Epitope D53, S protein 448-456]

>  <LABEL_VALUE>
No

$$$$
>  <SEQUENCE>
TLAILTALR [Epitope A16, E protein 30-38]

>  <LABEL_VALUE>
Yes

$$$$
>  <SEQUENCE>
GIYQTSNFR [Epitope D81, S protein 311-319]

>  <LABEL_VALUE>
Yes

$$$$

----------
Biological target: HLA-A2402 (Homo sapiens, UniProt P04439, D101N/D140Y/D185E/E176V/E190D/F33S/G103R/G107R/I119L/I121M/I306V/K335N/L105A/L180Q/L300P/N151K/N90K/Q86E/Q94H/R106L/R138H/R89G/T104I/T345S/V100E/W191G/Y123F)
Assay: Competitive peptide binding assay, HLA-A2402 transfected HMy2.CIR cells
Details: 15 μM unlabeled peptide, reference peptide EYLVSK(FITC)GVW 300 nM, 24 h, 4 °C
Assign Satisfied whenever 15 μM inhibition (%) does not fall below 70%; assign Not satisfied whenever it does.

>  <SEQUENCE>
SYFVVKRHTF [Epitope R48, RdRp protein 68-77]

>  <LABEL_VALUE>
Not satisfied

$$$$
>  <SEQUENCE>
LYIIKLIFLW [Epitope B28, M protein 46-55]

>  <LABEL_VALUE>
Not satisfied

$$$$
>  <SEQUENCE>
TLIVNSVLLF [Epitope A22, E protein 11-20]

>  <LABEL_VALUE>
Not satisfied

$$$$
>  <SEQUENCE>
NVYADSFVIR [Epitope D79, S protein 394-403]

>  <LABEL_VALUE>
Not satisfied

$$$$
>  <SEQUENCE>
VSLVKPSFY [Epitope A19, E protein 49-57]

>  <LABEL_VALUE>
Not satisfied

$$$$
>  <SEQUENCE>
RFLYIIKLIF [Epitope B31, M protein 44-53]

>  <LABEL_VALUE>
Satisfied

$$$$
>  <SEQUENCE>
VFLLVTLAI [Epitope A20, E protein 25-33]

>  <LABEL_VALUE>
Not satisfied

$$$$
>  <SEQUENCE>
PYRVVVLSF [Epitope D55, S protein 507-515]

>  <LABEL_VALUE>
Satisfied

$$$$
>  <SEQUENCE>
SYYSLLMPI [Epitope R47, RdRp protein 236-244]

>  <LABEL_VALUE>
Satisfied

$$$$
>  <SEQUENCE>
SYFIASFRLF [Epitope B26, M protein 94-103]

>  <LABEL_VALUE>
Satisfied

$$$$

----------
Target: HLA-A0201 (Homo sapiens, UniProt P04439, D140Y/D185E/D98H/E176V/E277Q/G131W/G231S/I119V/I121R/I166T/I218V/L300P/L318F/N151K/N90K/P208A/P217A/Q86G/Q94H/R138H/R169H/T345S)
Assay: Competitive peptide binding assay, HLA-A0201 transfected HMy2.CIR cells
Conditions: HLA-A0201; 15 μM unlabeled peptide, reference peptide FLPSDK(FITC)FPSV 300 nM, 24 h, 4 °C
Recorded 15 μM inhibition (%), one value per entry.

>  <SEQUENCE>
MIAQYTSAL [Epitope D13, S protein 869-877]

>  <MEASUREMENT_UNITS>
%

>  <15 μM inhibition (%)>
1.20

$$$$
>  <SEQUENCE>
NLLKDCPAV [Epitope R6, RdRp protein 88-96]

>  <MEASUREMENT_UNITS>
%

>  <15 μM inhibition (%)>
23.70

$$$$
>  <SEQUENCE>
RLANECAQV [Epitope R14, RdRp protein 654-662]

>  <MEASUREMENT_UNITS>
%

>  <15 μM inhibition (%)>
13.30

$$$$
>  <SEQUENCE>
FVFLVLLPLV [Epitope D12, S protein 2-11]

>  <MEASUREMENT_UNITS>
%

>  <15 μM inhibition (%)>
32.60

$$$$
>  <SEQUENCE>
QLLFVVEVV [Epitope R15, RdRp protein 468-476]

>  <MEASUREMENT_UNITS>
%

>  <15 μM inhibition (%)>
93.80

$$$$
>  <SEQUENCE>
WLTYTGAIKL [Epitope C3, N protein 330-339]

>  <MEASUREMENT_UNITS>
%

>  <15 μM inhibition (%)>
7.10

$$$$
>  <SEQUENCE>
GLMWLSYFI [Epitope B1, M protein 89-97]

>  <MEASUREMENT_UNITS>
%

>  <15 μM inhibition (%)>
88.20

$$$$
>  <SEQUENCE>
FVNEFYAYL [Epitope R8, RdRp protein 741-749]

>  <MEASUREMENT_UNITS>
%

>  <15 μM inhibition (%)>
89.90

$$$$
>  <SEQUENCE>
KLLEQWNLV [Epitope B2, M protein 15-23]

>  <MEASUREMENT_UNITS>
%

>  <15 μM inhibition (%)>
83.70

$$$$
>  <SEQUENCE>
AMRNAGIVGV [Epitope R4, RdRp protein 195-204]

>  <MEASUREMENT_UNITS>
%

>  <15 μM inhibition (%)>
78.30

$$$$
>  <SEQUENCE>
RLCAYCCNIV [Epitope A5, E protein 38-47]

>  <MEASUREMENT_UNITS>
%

>  <15 μM inhibition (%)>
6.20

$$$$
